Item-by-item account of koff
# System name: T1, his-tagged B7-H3 (UniProt Q5ZPR3-2 29-245, limits assumed)
# T1 construct: also called CD276; not shown: His tag
# T1 sequence (looked up): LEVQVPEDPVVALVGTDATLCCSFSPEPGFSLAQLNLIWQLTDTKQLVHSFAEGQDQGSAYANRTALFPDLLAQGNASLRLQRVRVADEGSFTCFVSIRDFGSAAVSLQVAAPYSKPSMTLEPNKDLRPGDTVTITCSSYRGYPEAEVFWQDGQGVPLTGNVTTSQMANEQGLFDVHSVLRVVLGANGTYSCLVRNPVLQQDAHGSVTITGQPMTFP
# Assay procedure: SPR, Carterra LSA; binder captured by anti-human Fc, his-tagged B7-H3 injected
Assay metric: koff

[[record]]
binder = "40633p1.1.B12 scFv-Fc (scFv, V domains shown) VH: EVQLLESGGGLLQPGGSLRLSCAASGFSFSSYGMHWVRQAPGKGLEWVAAINSDGSRIYYADSVKGRFTISRDNSKNTLYLQMNSLRAEDTAVYYCTKYYYHYAMDVWGQGTTVTVSS VL: QSVLTQPPSASGTPGQRVTISCSGSRSDIGATTVNWYQQLPGTAPKLLTYQSHLRPSGVPDRFSGSKSGTSASLAISGLQSEDEADYYCASWDASLNTWVFGGGTKLTVL"
assay_metric = "koff"
recorded_result = "0.01 s⁻¹"

[[record]]
binder = "40511p1.1.A1 scFv-Fc (scFv, V domains shown, Tested as scFv-Fc supernatant) VH: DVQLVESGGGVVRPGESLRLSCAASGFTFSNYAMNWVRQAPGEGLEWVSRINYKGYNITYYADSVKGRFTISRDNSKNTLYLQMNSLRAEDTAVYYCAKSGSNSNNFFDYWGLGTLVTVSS VL: EIVLTQSPGTLSVSPGERATLSCRASQSVNSKLAWYQQRPGQAPRLLIYDASSRATGIPDRFSGSGSGTDFTLTISRLEPEDFAVYYCQQYKNWPPLTFGGGTKVEIK"
assay_metric = "koff"
recorded_result = "0.04 s⁻¹"

[[record]]
binder = "40633p1.2.D11 scFv-Fc (scFv, V domains shown, Tested as scFv-Fc supernatant) VH: EVQLESGGGLVQPGGSLRLSCAASGFTVSYYGMSWVRQAPGKGLEWVSAIKQDGSEKYYADSVKGRFTISRDNSKNTLYLQMNSLRAEDTAVYYCARHWNDYSNAMNVWGQGTTVTVSS VL: QSVLTQPPSASGTPGQRVTISCSGSTSNIAIDFVNWYQQLPGTAPKLLIYTIDQRPSGVPDRFSGSKSGTSASLAISGLQSEDEAVYYCASWDASLNGWVFGRGTKLTVL"
assay_metric = "koff"
recorded_result = "0.07 s⁻¹"

[[record]]
binder = "40511p1.1.D8 scFv-Fc (scFv, V domains shown) VH: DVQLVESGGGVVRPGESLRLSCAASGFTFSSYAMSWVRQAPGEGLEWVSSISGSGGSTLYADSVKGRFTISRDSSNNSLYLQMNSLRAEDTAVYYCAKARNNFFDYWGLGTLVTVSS VL: EIVLTQSPGTLTLSPGERATLSCRASRSILTSLAWYQQRPGQAPRLLIYGANSRATGIPDRFSGSGSGTEFTLTISSLQSEDFAVYYCQQYYDWLTITFGGGTKVEIK"
assay_metric = "koff"
recorded_result = "0.02 s⁻¹"

[[record]]
binder = "40511p1.1.D3 scFv-Fc (scFv, V domains shown) VH: DVQLVESGGGVVRPGGSLRLSCAASGFTFRSYGMNWVRQAPGEGLEWVSRMSSGGGAYYADSVKGRFTISRDNSKNTLYLQMNSLRAEDTAVYYCARNSRDFFFDQWGLGTLVTVSS VL: ETVLTQSPGTLSLSPGERATLSCRASQSVNSKLAWYQQKPGQAPRLLIYGASSRATGIPARFSGSGSGTEFTLTISSLQTEDFAVYYCQQYSDWPPLTFGGGTKVEIK"
assay_metric = "koff"
recorded_result = "0.04 s⁻¹"

